# test.target: JNK1 (Homo sapiens, UniProt P45983)
# Construct: purchased Carna Biosciences
# Sequence (P45983 whole entry): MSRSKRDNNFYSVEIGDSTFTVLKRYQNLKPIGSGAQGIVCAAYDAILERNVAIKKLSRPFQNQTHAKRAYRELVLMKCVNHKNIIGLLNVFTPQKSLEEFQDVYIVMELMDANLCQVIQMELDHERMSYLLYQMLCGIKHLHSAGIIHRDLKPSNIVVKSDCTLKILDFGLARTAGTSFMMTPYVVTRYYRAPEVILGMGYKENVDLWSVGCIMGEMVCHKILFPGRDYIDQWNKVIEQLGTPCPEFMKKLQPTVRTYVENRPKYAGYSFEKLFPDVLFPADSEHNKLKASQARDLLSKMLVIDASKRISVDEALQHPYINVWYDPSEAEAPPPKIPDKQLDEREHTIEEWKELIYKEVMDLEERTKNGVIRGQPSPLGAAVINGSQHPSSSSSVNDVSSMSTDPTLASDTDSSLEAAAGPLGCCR
# test.description: JNK1 biochemical assays (one or more of: time resolved fluorescence, Z'-LYTE Cascade, radioactive)
# measurement.conditions: tested in one or more of the JNK1 biochemical assays; read-out: Act. Level (JNK1 biochemical assay IC50 activity level)
pIC50: −log10 of the molar value.
assay.metric: pIC50

Examples with answers:
Data request: I'd like to know its pIC50. The compound in question is CC(C)CC(=O)N1CCC(Nc2ncc(C(N)=O)c(N[C@H]3C[C@@H](O)C3)n2)CC1 [Example A-68]
Data returned: > 6.70

Data request: I'd like to know its pIC50. The compound in question is NC(=O)c1cnc(NC23CCC(CC2)CC3)nc1N[C@@H]1CCC[C@H](O)C1 [Example A-159]
Data returned: > 6.70

Data request: I'd like to know its pIC50. The compound in question is NC(=O)c1cnc(N[C@H]2CC[C@H](OCCF)CC2)nc1N[C@H]1CCC[C@@H]1O [Example A-75]
Data returned: > 6.70

Further cases:
Data request: I'd like to know its pIC50. The compound in question is CCO[C@H]1C[C@H](Nc2ncc(C(N)=O)c(N[C@H]3CCC[C@@H]3O)n2)C1 [Example A-74]
Data returned: 6.10 to 6.70

* * *

# test.target: JNK1 (Homo sapiens)
# Construct: purchased Carna Biosciences
# test.description: JNK1 biochemical assays (one or more of: time resolved fluorescence, Z'-LYTE Cascade, radioactive)
# measurement.conditions: Table 2; JNK1 IC50 activity level; read-out: Act. Level
pIC50: −log10 of the molar value.
The following molecules are listed with their measured pIC50 values.

Examples with answers:
Data request: I'd like to know its pIC50. The molecule in question is `COc1ccc(Nc2ncc(C(N)=O)c(Nc3ccccc3)n2)c(OC)c1`
Data returned: > 6.70

Data request: I'd like to know its pIC50. The molecule in question is `CNC(=O)[C@H]1CC[C@H](Nc2ncc(C(N)=O)c(Nc3ccccc3)n2)CC1`
Data returned: > 6.70

Data request: I'd like to know its pIC50. The molecule in question is `COc1cc(Nc2ncc(C(N)=O)c(Nc3ccccc3)n2)cc(OC)c1OC`
Data returned: > 6.70

Data request: I'd like to know its pIC50. The molecule in question is `NC(=O)c1cnc(NCc2ccccc2)nc1Nc1ccccc1`
Data returned: 6.00 to 6.10

Further cases:
Data request: I'd like to know its pIC50. The molecule in question is `CC(C)Nc1nc(N[C@H]2CCc3ncccc3C2)ncc1C(N)=O`
Data returned: > 6.70

* * *

# test.target: JNK1 (Homo sapiens, UniProt P45983)
# Construct: purchased Carna Biosciences
# test.description: JNK1 biochemical assays (one or more of: time resolved fluorescence, Z'-LYTE Cascade, radioactive)
# measurement.conditions: tested in one or more of the JNK1 biochemical assays; read-out: Act. Level (JNK1 biochemical assay IC50 activity level)
pIC50: −log10 of the molar value.
The following compounds are listed with their measured pIC50 values.

Examples with answers:
Data request: I'd like to know its pIC50. The compound in question is CCO[C@H]1CC[C@H](Nc2ncc(C(N)=O)c(N[C@@H]3CC[C@@H](C)[C@H](O)C3)n2)CC1 [Example A-172]
Data returned: > 6.70

Data request: I'd like to know its pIC50. The compound in question is CC(C)Nc1nc(NC2CCC3(CC2)OCCO3)ncc1C(N)=O [Example A-11]
Data returned: 6.10 to 6.70

Data request: I'd like to know its pIC50. The compound in question is CO[C@H]1CC[C@H](Nc2ncc(C(N)=O)c(N[C@@H]3CCC[C@H]3O)n2)CC1 [Example A-65]
Data returned: > 6.70

Further cases:
Data request: I'd like to know its pIC50. The compound in question is CO[C@H]1CC[C@H](Nc2ncc(C(N)=O)c(N[C@H]3CC[C@@H](CO)CC3)n2)CC1 [Example A-119]
Data returned: > 6.70

* * *

The following molecules are listed with their measured IC50 values.
# test.target: JNK1 (Homo sapiens)
# Construct: purchased Carna Biosciences
# test.description: JNK1 biochemical assays (one or more of: time resolved fluorescence, Z'-LYTE Cascade, radioactive)
# measurement.conditions: tested in one or more of the JNK1 biochemical assays; read-out: Act. Level (JNK1 biochemical assay IC50 activity level)

Examples with answers:
Data request: I'd like to know its IC50. The molecule in question is `CO[C@H]1CC[C@H](Nc2ncc(C(N)=O)c(N[C@H]3CC[C@@H](O)CC3)n2)CC1`
Data returned: < 200 nM

Data request: I'd like to know its IC50. The molecule in question is `CO[C@H]1CCC[C@H](Nc2ncc(C(N)=O)c(N[C@@H]3CCC[C@H](O)C3)n2)CC1`
Data returned: < 200 nM

Data request: I'd like to know its IC50. The molecule in question is `CNC(=O)[C@H]1CC[C@H](Nc2ncc(C(N)=O)c(NC(C)C)n2)CC1`
Data returned: < 200 nM

Data request: I'd like to know its IC50. The molecule in question is `CO[C@@H]1CCC[C@H](Nc2ncc(C(N)=O)c(N[C@@H]3CCC[C@H](O)C3)n2)CC1`
Data returned: < 200 nM

Below: the item to evaluate.
Data request: I'd like to know its IC50. The molecule in question is `CC(C)CC(=O)N1CCC(Nc2ncc(C(N)=O)c(NC3CCC3)n2)CC1`
Data returned: < 200 nM

* * *

# test.target: JNK1 (Homo sapiens, UniProt P45983)
# Construct: purchased Carna Biosciences
# test.description: JNK1 biochemical assays (one or more of: time resolved fluorescence, Z'-LYTE Cascade, radioactive)
# measurement.conditions: Table 3; JNK1 IC50 activity level; read-out: Act. Level
The following compounds are listed with their measured IC50 values.

Examples with answers:
Data request: Provide value of IC50 for this record tested with JNK1 (Homo sapiens, UniProt P45983): `CO[C@H]1CC[C@](C)(Nc2ncc(C#N)c(N[C@@H]3CCC[C@H](O)C3)n2)CC1`
Data returned: 200 to 800 nM

Data request: Provide value of IC50 for this record tested with JNK1 (Homo sapiens, UniProt P45983): `CCO[C@H]1CC[C@H](Nc2ncc(C#N)c(N[C@H]3CC[C@@H](O)CC3)n2)CC1`
Data returned: 200 to 800 nM

Data request: Provide value of IC50 for this record tested with JNK1 (Homo sapiens, UniProt P45983): `CCO[C@H]1CC[C@H](Nc2ncc(C#N)c(N[C@@H]3CCCC[C@H](O)C3)n2)CC1`
Data returned: < 200 nM

Further cases:
Data request: Provide value of IC50 for this record tested with JNK1 (Homo sapiens, UniProt P45983): `CO[C@H]1CC[C@H](Nc2ncc(C#N)c(N[C@@H]3CCCC[C@@H](O)C3)n2)CC1`
Data returned: < 200 nM

Data request: Provide value of IC50 for this record tested with JNK1 (Homo sapiens, UniProt P45983): `N#Cc1cnc(NC2CCOCC2)nc1N[C@@H]1CCC[C@H](O)C1`
Data returned: 200 to 800 nM

Data request: Provide value of IC50 for this record tested with JNK1 (Homo sapiens, UniProt P45983): `CCO[C@H]1CC[C@H](Nc2ncc(C#N)c(N[C@@H]3CC[C@@H](C)[C@H](O)C3)n2)CC1`
Data returned: < 200 nM

* * *

The following compounds are listed with their measured IC50 values.
# test.target: JNK1 (Homo sapiens, UniProt P45983)
# Construct: purchased Carna Biosciences
# test.description: JNK1 biochemical assays (one or more of: time resolved fluorescence, Z'-LYTE Cascade, radioactive)
# measurement.conditions: tested in one or more of the JNK1 biochemical assays; read-out: Act. Level (JNK1 biochemical assay IC50 activity level)

Data request: Provide value of IC50 for this record tested with JNK1 (Homo sapiens, UniProt P45983): NC(=O)c1cnc(N[C@H]2CC[C@H](O)CC2)nc1NC1CCCCC1 [Example A-144]
Data returned: < 200 nM

Further cases:
Data request: Provide value of IC50 for this record tested with JNK1 (Homo sapiens, UniProt P45983): CC(C)Nc1nc(N[C@H]2CC[C@H](C(C)(C)O)CC2)ncc1C(N)=O [Example A-6]
Data returned: < 200 nM

Data request: Provide value of IC50 for this record tested with JNK1 (Homo sapiens, UniProt P45983): NC(=O)c1cnc(N[C@H]2CC[C@H](OC(F)F)CC2)nc1N[C@@H]1CCC[C@H]1O [Example A-4]
Data returned: < 200 nM

Data request: Provide value of IC50 for this record tested with JNK1 (Homo sapiens, UniProt P45983): CO[C@H]1CC[C@H](Nc2ncc(C(N)=O)c(N[C@H]3CC[C@@H](C(=O)N(C)C)CC3)n2)CC1 [Example A-118]
Data returned: < 200 nM

Data request: Provide value of IC50 for this record tested with JNK1 (Homo sapiens, UniProt P45983): CC(C)Nc1ncc(C(N)=O)c(N[C@H]2CC[C@@H](C(C)(C)O)CC2)n1 [Example A-140]
Data returned: 200 to 800 nM

Data request: Provide value of IC50 for this record tested with JNK1 (Homo sapiens, UniProt P45983): CCC(=O)N[C@H]1CC[C@@H](Nc2nc(N[C@@H](C)C3CCCCC3)ncc2C(N)=O)CC1 [Example A-124]
Data returned: < 200 nM

Data request: Provide value of IC50 for this record tested with JNK1 (Homo sapiens, UniProt P45983): NC(=O)c1cnc(N[C@H]2CC[C@](O)(c3ccccc3)CC2)nc1N[C@H]1CCC[C@@H]1O [Example A-70]
Data returned: 200 to 800 nM

Values were extracted from patent US12129237B2.
